// note: pKd values for Heat shock protein HSP 90-alpha (Homo sapiens, UniProt P07900) were reported in different studies
Remember the convention: pKd equals -log10 of concentration in molar.

1) Cc1ccc(Sc2cc(C(=O)N3Cc4ccccc4C3)c(O)cc2O)cc1C ... 7.18
2) COc1c(C)cnc(Cn2cc(C#CCCn3cc(C(=O)NCCOCCNC(=O)CN4CCN(c5ccc(Nc6ncc7c(C)c(C(C)=O)c(=O)n(C8CCCC8)c7n6)nc5)CC4)nn3)c3c(Cl)nc(N)nc32)c1C ... 6.51

Proceeding to the next compound to report its pKd.
Q: Give the measured pKd of COC(=O)c1c(O)cc(O)c(Cl)c1CCc1nccn1Cc1ccc(C)cc1 .
Result: 4.60
